Assayed target: mu opiate receptor (MOR) (Rattus norvegicus, UniProt P33535)
Construct: from tissue; host or cells: striatal membrane preparation (rat striatum)
Sequence (P33535 whole entry): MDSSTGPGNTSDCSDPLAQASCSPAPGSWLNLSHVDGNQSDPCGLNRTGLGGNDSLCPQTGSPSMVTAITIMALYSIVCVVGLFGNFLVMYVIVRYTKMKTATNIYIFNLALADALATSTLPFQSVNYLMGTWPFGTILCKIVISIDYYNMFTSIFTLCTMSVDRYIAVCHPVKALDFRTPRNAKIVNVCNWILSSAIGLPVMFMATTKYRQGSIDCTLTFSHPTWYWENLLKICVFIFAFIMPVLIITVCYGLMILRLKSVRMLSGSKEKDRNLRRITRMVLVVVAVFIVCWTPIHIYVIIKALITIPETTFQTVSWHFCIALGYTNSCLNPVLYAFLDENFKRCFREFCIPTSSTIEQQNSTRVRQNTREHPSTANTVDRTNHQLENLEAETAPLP
Experimental protocol: MOR agonist activity, [35S]GTPγS binding assay using striatal membranes
Assay type: biochemical
Design: reference not given here
Test context: 1 μM compound, striatal membranes
// reported MOR agonist activity, [35S]GTPγS binding to Gαo for each item listed
Readout name: MOR agonist activity, [35S]GTPγS binding to Gαo (%)

>  <Compound>
CCCCN1CCC2(CC1)OCCN2S(=O)(=O)c1ccc(OC)cc1 [Compound C0102M]

>  <Assayed target>
mu opiate receptor (MOR) (Rattus norvegicus, UniProt P33535)

>  <Data value>
272.0

$$$$
>  <Compound>
O=C1CN(Cc2ccccc2)C2(CCN(CC3CC3)CC2)N1 [Compound C0125M]

>  <Assayed target>
mu opiate receptor (MOR) (Rattus norvegicus, UniProt P33535)

>  <Data value>
195.2

$$$$
>  <Compound>
O=[N+]([O-])c1ccc(S(=O)(=O)N2CCC3(CC2)NCCO3)cc1 [Compound C0040]

>  <Assayed target>
mu opiate receptor (MOR) (Rattus norvegicus, UniProt P33535)

>  <Data value>
308.3

$$$$
>  <Compound>
CS(=O)(=O)c1ccc(S(=O)(=O)N2CCOC23CCNCC3)cc1 [Compound C0116M]

>  <Assayed target>
mu opiate receptor (MOR) (Rattus norvegicus, UniProt P33535)

>  <Data value>
302.8

$$$$
>  <Compound>
CC(=O)c1ccc(S(=O)(=O)N2CCC3(CC2)NCCS3)cc1 [Compound C0060]

>  <Assayed target>
mu opiate receptor (MOR) (Rattus norvegicus, UniProt P33535)

>  <Data value>
218.9

$$$$
>  <Compound>
CC(=O)c1ccc(S(=O)(=O)N2CC(CN(C)C)OC23CCN(CC2CC2)CC3)cc1 (stereo not drawn) [Compound C0128M]

>  <Assayed target>
mu opiate receptor (MOR) (Rattus norvegicus, UniProt P33535)

>  <Data value>
286.0

$$$$
>  <Compound>
O=C1CN(Cc2ccccc2)C2(CCNCC2)N1 [Compound C0115M]

>  <Assayed target>
mu opiate receptor (MOR) (Rattus norvegicus, UniProt P33535)

>  <Data value>
226.8

$$$$
>  <Compound>
O=C1CN(C2CCc3ccccc3C2)C2(CCN(S(=O)(=O)c3ccccc3)CC2)N1 (stereo not drawn) [C0136M(P5)]

>  <Assayed target>
mu opiate receptor (MOR) (Rattus norvegicus, UniProt P33535)

>  <Data value>
237.3

$$$$
>  <Compound>
CC(=O)c1ccc(S(=O)(=O)N2CCOC23CCN(CC(=O)O)CC3)cc1 [Compound C0100M]

>  <Assayed target>
mu opiate receptor (MOR) (Rattus norvegicus, UniProt P33535)

>  <Data value>
245.9

$$$$
>  <Compound>
C=CCN1CCC2(CC1)OCCN2S(=O)(=O)c1ccc(OC)cc1 [Compound C0091M]

>  <Assayed target>
mu opiate receptor (MOR) (Rattus norvegicus, UniProt P33535)

>  <Data value>
274.4

$$$$
>  <Compound>
CCN1CCC2(CC1)OCCN2S(=O)(=O)c1ccc(C(C)=O)cc1 [Compound C0094M]

>  <Assayed target>
mu opiate receptor (MOR) (Rattus norvegicus, UniProt P33535)

>  <Data value>
263.5

$$$$
>  <Compound>
CS(=O)(=O)c1ccc(S(=O)(=O)N2CCOC23CCN(CC2CC2)CC3)cc1 [Compound C0126M]

>  <Assayed target>
mu opiate receptor (MOR) (Rattus norvegicus, UniProt P33535)

>  <Data value>
265.3

$$$$
>  <Compound>
O=[N+]([O-])c1ccc(S(=O)(=O)N2CCC3(CC2)NCCCO3)cc1 [Compound C0045]

>  <Assayed target>
mu opiate receptor (MOR) (Rattus norvegicus, UniProt P33535)

>  <Data value>
238.8

$$$$
>  <Compound>
COc1ccc(S(=O)(=O)N2CCOC23CCN(C)CC3)cc1 [Compound C0088M]

>  <Assayed target>
mu opiate receptor (MOR) (Rattus norvegicus, UniProt P33535)

>  <Data value>
355.3

$$$$
>  <Compound>
CC(=O)c1ccc(S(=O)(=O)N2C(Cc3c[nH]cn3)C(=O)NC23CCNCC3)cc1 (stereo not drawn) [Compound C0119M]

>  <Assayed target>
mu opiate receptor (MOR) (Rattus norvegicus, UniProt P33535)

>  <Data value>
167.8

$$$$
>  <Compound>
CN1CCC2(CC1)NCC(=O)N2Cc1ccccc1 [Compound C0105M]

>  <Assayed target>
mu opiate receptor (MOR) (Rattus norvegicus, UniProt P33535)

>  <Data value>
220.3

$$$$
>  <Compound>
CC(=O)c1ccc(S(=O)(=O)N2CCC3(CC2)OCCN3S(C)(=O)=O)cc1 [Compound C0056]

>  <Assayed target>
mu opiate receptor (MOR) (Rattus norvegicus, UniProt P33535)

>  <Data value>
193.4

$$$$
>  <Compound>
CN1CCC2(CC1)OCCN2S(=O)(=O)c1ccc(S(C)(=O)=O)cc1 [Compound C0106M]

>  <Assayed target>
mu opiate receptor (MOR) (Rattus norvegicus, UniProt P33535)

>  <Data value>
240.7

$$$$
>  <Compound>
O=C1CNC2(CCNCC2)N1Cc1ccccc1 [Compound C0114M]

>  <Assayed target>
mu opiate receptor (MOR) (Rattus norvegicus, UniProt P33535)

>  <Data value>
144.3

$$$$
>  <Compound>
COc1ccc(S(=O)(=O)N2CCOC23CCNCC3)cc1 [Compound C0027]

>  <Assayed target>
mu opiate receptor (MOR) (Rattus norvegicus, UniProt P33535)

>  <Data value>
313.9

$$$$
>  <Compound>
CC(=O)N1CCSC12CCN(S(=O)(=O)c1ccc([N+](=O)[O-])cc1)CC2 [Compound C0050]

>  <Assayed target>
mu opiate receptor (MOR) (Rattus norvegicus, UniProt P33535)

>  <Data value>
127.6

$$$$
>  <Compound>
COc1ccc(S(=O)(=O)N2CCC3(CC2)NCCO3)cc1 [Compound C0026]

>  <Assayed target>
mu opiate receptor (MOR) (Rattus norvegicus, UniProt P33535)

>  <Data value>
288.4

$$$$
>  <Compound>
CC(=O)c1ccc(S(=O)(=O)N2CCOC23CCNCC3)cc1 [Compound C0046]

>  <Assayed target>
mu opiate receptor (MOR) (Rattus norvegicus, UniProt P33535)

>  <Data value>
492.9

$$$$
>  <Compound>
CN1CCC2(CC1)NC(=O)CN2Cc1ccccc1 [Compound C0104M]

>  <Assayed target>
mu opiate receptor (MOR) (Rattus norvegicus, UniProt P33535)

>  <Data value>
238.9

$$$$
>  <Compound>
CC(=O)c1ccc(S(=O)(=O)N2CC(CN(C)C)OC23CCNCC3)cc1 (stereo not drawn) [Compound C0118M]

>  <Assayed target>
mu opiate receptor (MOR) (Rattus norvegicus, UniProt P33535)

>  <Data value>
261.5

$$$$
>  <Compound>
O=[N+]([O-])c1ccc(S(=O)(=O)N2CCC3(CC2)NCCS3)cc1 [Compound C0044]

>  <Assayed target>
mu opiate receptor (MOR) (Rattus norvegicus, UniProt P33535)

>  <Data value>
280.1

$$$$
>  <Compound>
COc1ccc(S(=O)(=O)N2CCSC23CCNCC3)cc1 [S-C0027]

>  <Assayed target>
mu opiate receptor (MOR) (Rattus norvegicus, UniProt P33535)

>  <Data value>
286.8

$$$$

###

Reported MOR agonist activity, [35S]GTPγS binding to Gαo is given for each of the following compounds.
Assayed target: mu opiate receptor (MOR) (Rattus norvegicus, UniProt P33535)
Construct: from tissue; host or cells: striatal membrane preparation (rat striatum)
Experimental protocol: MOR agonist activity, [35S]GTPγS binding assay using striatal membranes
Type: biochemical
Set-up: reference not given here
Test context: 1 μM compound + BFNA (1 μM β-funaltrexamine)
Readout name: MOR agonist activity, [35S]GTPγS binding to Gαo

>  <Compound>
CC(=O)c1ccc(S(=O)(=O)N2CCOC23CCNCC3)cc1

>  <Data value>
156.8%

$$$$
>  <Compound>
COc1ccc(S(=O)(=O)N2CCOC23CCN(CC2CC2)CC3)cc1 [Compound C0090M]

>  <Data value>
41.0%

$$$$
>  <Compound>
CS(=O)(=O)c1ccc(S(=O)(=O)N2CCOC23CCN(CC2CC2)CC3)cc1 [Compound C0126M]

>  <Data value>
108.5%

$$$$
>  <Compound>
CC(=O)c1ccc(S(=O)(=O)N2CCC3(CC2)NCCS3)cc1

>  <Data value>
143.9%

$$$$
>  <Compound>
CCCCN1CCC2(CC1)OCCN2S(=O)(=O)c1ccc(OC)cc1 [Compound C0102M]

>  <Data value>
150.4%

$$$$
>  <Compound>
CC(=O)c1ccc(S(=O)(=O)N2CC(CN(C)C)OC23CCN(CC2CC2)CC3)cc1 (centres unmarked) [Compound C0128M]

>  <Data value>
63.9%

$$$$
>  <Compound>
CCc1ccc(S(=O)(=O)N2CCOC23CCN(CC2CC2)CC3)cc1 [Compound C0135M]

>  <Data value>
113.3%

$$$$
>  <Compound>
CC(=O)c1ccc(S(=O)(=O)N2CCC3(CC2)NC(=O)CO3)cc1 [Compound C0087M]

>  <Data value>
142.5%

$$$$
